Test target: CDKL1 (human) (UniProt Q00532)
Sequence (Q00532 whole entry, looked up): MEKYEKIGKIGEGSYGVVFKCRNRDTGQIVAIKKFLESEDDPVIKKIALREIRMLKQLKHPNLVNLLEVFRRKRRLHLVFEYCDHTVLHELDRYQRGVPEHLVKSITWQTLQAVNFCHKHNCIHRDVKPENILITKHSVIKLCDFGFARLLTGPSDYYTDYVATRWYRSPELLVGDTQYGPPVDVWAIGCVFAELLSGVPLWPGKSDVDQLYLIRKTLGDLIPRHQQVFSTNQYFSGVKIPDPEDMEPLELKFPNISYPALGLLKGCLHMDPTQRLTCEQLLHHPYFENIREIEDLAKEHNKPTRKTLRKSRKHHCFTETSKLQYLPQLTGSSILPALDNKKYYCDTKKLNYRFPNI
Test details: KINOMEscan competition binding
Test conditions: compound 10.0 µM
Measured kinase still bound, per cent of control accompanies every entry in the list below.
Measurement type: kinase still bound, per cent of control

1. O=C(NOC[C@H](O)CO)c1ccc(F)c(F)c1Nc1ccc(I)cc1F    78%
2. Cc1cc([C@@H](C)Nc2ccccc2C(=O)O)c2nc(N3CCOCC3)cc(=O)n2c1    100%
3. CCN1CCN(Cc2ccc(Nc3ncc4c(n3)N(C)c3ccccc3C(=O)N4C)cc2C(F)(F)F)CC1    98%
4. C[C@@H](Oc1cc(-n2cnc3ccc(CN4CCN(C)CC4)cc32)sc1C(N)=O)c1ccccc1C(F)(F)F    75%

====

Measured kinase still bound, per cent of control accompanies every entry in the list below.
Test target: UniProt Q15303
Sequence (Q15303 whole entry, looked up): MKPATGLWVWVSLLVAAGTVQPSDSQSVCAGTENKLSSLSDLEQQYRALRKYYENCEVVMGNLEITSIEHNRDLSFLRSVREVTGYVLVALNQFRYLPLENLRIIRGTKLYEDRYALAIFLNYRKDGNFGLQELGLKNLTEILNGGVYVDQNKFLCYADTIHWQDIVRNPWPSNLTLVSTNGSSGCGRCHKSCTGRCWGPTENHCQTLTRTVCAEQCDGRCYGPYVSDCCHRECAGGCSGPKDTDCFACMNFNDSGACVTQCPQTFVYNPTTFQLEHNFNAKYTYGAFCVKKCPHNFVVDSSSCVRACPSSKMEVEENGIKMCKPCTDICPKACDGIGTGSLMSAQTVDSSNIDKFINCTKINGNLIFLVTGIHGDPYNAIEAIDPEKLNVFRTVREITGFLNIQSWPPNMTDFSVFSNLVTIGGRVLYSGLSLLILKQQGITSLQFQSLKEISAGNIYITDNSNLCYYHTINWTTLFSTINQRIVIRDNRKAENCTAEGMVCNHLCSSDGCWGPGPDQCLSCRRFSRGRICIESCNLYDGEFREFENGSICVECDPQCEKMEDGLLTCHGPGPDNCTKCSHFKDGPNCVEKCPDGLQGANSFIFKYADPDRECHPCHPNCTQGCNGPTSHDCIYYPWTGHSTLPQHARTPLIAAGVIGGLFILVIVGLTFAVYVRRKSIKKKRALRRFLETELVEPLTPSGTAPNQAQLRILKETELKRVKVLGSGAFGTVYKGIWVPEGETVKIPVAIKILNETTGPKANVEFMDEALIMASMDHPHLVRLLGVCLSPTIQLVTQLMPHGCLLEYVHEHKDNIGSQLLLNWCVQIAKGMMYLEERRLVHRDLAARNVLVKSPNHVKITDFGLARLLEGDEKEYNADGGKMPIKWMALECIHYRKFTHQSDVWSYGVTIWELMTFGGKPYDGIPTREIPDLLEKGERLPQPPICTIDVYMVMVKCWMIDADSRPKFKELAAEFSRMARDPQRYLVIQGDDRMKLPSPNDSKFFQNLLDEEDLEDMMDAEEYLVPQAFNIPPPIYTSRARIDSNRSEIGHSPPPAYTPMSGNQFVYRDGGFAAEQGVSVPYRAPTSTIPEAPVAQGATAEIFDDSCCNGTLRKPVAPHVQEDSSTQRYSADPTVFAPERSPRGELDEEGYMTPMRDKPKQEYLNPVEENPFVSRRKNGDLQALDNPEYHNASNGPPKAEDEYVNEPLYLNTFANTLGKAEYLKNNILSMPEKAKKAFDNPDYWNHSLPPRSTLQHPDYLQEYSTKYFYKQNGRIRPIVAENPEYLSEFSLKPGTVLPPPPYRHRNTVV
Test details: KINOMEscan competition binding
Test conditions: compound 10.0 µM
Measurement type: kinase still bound, per cent of control (%)

1. O=C1Nc2ccc(I)cc2/C1=C/c1cc(Br)c(O)c(Br)c1    50
2. CCC(=O)N1CCN(c2ccc(-n3c(=O)ccc4cnc5ccc(-c6cnc7ccccc7c6)cc5c43)cc2C(F)(F)F)CC1    100
3. CCN1CCN(Cc2ccc(Nc3ncc4c(n3)N(C)c3ccccc3C(=O)N4C)cc2C(F)(F)F)CC1    95
4. CN(C)C/C=C/C(=O)Nc1cccc(Nc2ncc3c(n2)N(C)c2ccccc2C(=O)N3C)c1    100
5. C=CC(=O)Nc1cccc(Oc2nc(Nc3ccc(N4CCN(C)CC4)cc3OC)ncc2Cl)c1    0.25

====

Measured kinase still bound, per cent of control accompanies every entry in the list below.
Test target: CASK (human)
Test details: KINOMEscan competition binding
Test conditions: compound 10.0 µM
Measurement type: kinase still bound, per cent of control (%)

1. O=C(NOC[C@H](O)CO)c1ccc(F)c(F)c1Nc1ccc(I)cc1F    67
2. CCOc1cc2ncc(C#N)c(Nc3ccc(OCc4ccccn4)c(Cl)c3)c2cc1NC(=O)/C=C/CN(C)C    100
3. C[C@@H](Oc1cc(-n2cnc3ccc(CN4CCN(C)CC4)cc32)sc1C(N)=O)c1ccccc1C(F)(F)F    50
4. Nc1ccc(-c2ccc3ncc4ccc(=O)n(-c5cccc(C(F)(F)F)c5)c4c3c2)cn1    67
5. CCN1CCN(Cc2ccc(Nc3ncc4c(n3)N(C)c3ccccc3C(=O)N4C)cc2C(F)(F)F)CC1    15
6. Cc1ccc(NC(=O)c2cccc(C(C)(C)C#N)c2)cc1Nc1ccc2ncn(C)c(=O)c2c1    96
7. COc1cc(N2CCN(C)CC2)ccc1Nc1nc(N)c(C(=O)c2c(Cl)cccc2Cl)s1    35
8. Cc1ccc2nc(NCCN)c3ncc(C)n3c2c1    100
9. O=C1Nc2ccc(I)cc2/C1=C/c1cc(Br)c(O)c(Br)c1    74
10. CCCS(=O)(=O)Nc1ccc(F)c(C(=O)c2c[nH]c3ncc(-c4ccc(Cl)cc4)cc23)c1F    80
11. O=C(O)c1ccc(Nc2ncc3c(n2)-c2ccc(Cl)cc2C(c2c(F)cccc2F)=NC3)cc1    91
12. Cc1cc([C@@H](C)Nc2ccccc2C(=O)O)c2nc(N3CCOCC3)cc(=O)n2c1    92
13. N#Cc1c(NC(=O)c2cccc3ccccc23)sc2c1CCCC2    71
14. C=CC(=O)Nc1cc(NC(=O)c2ccc(C)c(NC(=O)c3ccno3)c2)cc(C(F)(F)F)c1    83
15. O=C(NC1CC1)c1cccc(-c2ccc3c(NC(=O)C4CC4)n[nH]c3c2)c1    82
16. CCC(=O)N1CCN(c2ccc(-n3c(=O)ccc4cnc5ccc(-c6cnc7ccccc7c6)cc5c43)cc2C(F)(F)F)CC1    100
17. CN(C)C/C=C/C(=O)Nc1cccc(Nc2ncc3c(n2)N(C)c2ccccc2C(=O)N3C)c1    39
18. C=CC(=O)Nc1cccc(Nc2nc(N[C@H]3CC[C@H](N(C)C)CC3)nc3c2ncn3C(C)C)c1    92

====

Measured kinase still bound, per cent of control accompanies every entry in the list below.
Test system: ABL1 (human), P00519 [E255K]
Sequence (P00519 whole entry E255K, looked up): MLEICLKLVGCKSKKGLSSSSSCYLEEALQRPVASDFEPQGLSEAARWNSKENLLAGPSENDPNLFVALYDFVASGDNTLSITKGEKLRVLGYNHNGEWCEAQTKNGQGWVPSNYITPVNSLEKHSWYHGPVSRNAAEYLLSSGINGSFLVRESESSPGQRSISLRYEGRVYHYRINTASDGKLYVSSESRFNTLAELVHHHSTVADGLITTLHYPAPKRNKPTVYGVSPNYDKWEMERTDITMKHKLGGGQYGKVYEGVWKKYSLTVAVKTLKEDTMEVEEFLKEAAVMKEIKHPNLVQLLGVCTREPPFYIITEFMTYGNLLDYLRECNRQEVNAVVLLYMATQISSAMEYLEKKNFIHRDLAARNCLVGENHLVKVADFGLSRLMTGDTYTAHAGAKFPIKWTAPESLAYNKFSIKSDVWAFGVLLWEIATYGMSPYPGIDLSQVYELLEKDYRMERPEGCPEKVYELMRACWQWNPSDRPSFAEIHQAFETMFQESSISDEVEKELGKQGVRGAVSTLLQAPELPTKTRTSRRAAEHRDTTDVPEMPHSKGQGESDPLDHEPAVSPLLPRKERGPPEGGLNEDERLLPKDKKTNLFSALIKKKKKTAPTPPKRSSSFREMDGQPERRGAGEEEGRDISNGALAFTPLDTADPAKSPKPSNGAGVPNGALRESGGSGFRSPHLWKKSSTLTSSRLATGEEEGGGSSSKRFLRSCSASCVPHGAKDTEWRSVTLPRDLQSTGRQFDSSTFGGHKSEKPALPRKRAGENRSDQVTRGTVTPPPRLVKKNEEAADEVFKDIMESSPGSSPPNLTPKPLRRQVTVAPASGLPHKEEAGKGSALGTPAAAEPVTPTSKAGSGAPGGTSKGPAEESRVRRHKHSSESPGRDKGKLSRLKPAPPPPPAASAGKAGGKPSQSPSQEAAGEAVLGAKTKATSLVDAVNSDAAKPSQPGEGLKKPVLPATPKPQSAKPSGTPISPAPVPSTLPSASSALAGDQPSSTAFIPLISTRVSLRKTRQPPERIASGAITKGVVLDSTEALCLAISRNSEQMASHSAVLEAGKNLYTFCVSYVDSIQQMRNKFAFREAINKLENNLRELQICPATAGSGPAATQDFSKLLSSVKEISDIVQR
Test details: KINOMEscan competition binding
Test conditions: compound 10.0 µM
Measurement type: kinase still bound, per cent of control (%)

1. COc1ccc(N(C(=O)Oc2c(C)cccc2C)c2ccnc(Nc3ccc(N4CCN(C)CC4)cc3)n2)c(OC)c1    0.3
2. CN(C)C/C=C/C(=O)Nc1cccc(Nc2ncc3c(n2)N(C)c2ccccc2C(=O)N3C)c1    0.1
3. COc1cc2ncn(-c3cc(OCc4ccccc4C(F)(F)F)c(C(N)=O)s3)c2cc1OC    60
4. CCOc1cc(N2CCC(O)CC2)ccc1Nc1ncc2c(n1)N(C)c1ccccc1C(=O)N2C    100
5. CCN(CC)CCCCNc1ncc2cc(-c3cc(OC)cc(OC)c3)c(NC(=O)NC(C)(C)C)nc2n1    100
6. NC(=O)Nc1cc(-c2cccc(F)c2)sc1C(=O)N[C@@H]1CCCNC1    0
7. O=C1NC(=O)/C(=C/c2ccc3nccc(-c4ccncc4)c3c2)S1    71
8. CCN1CCN(C(=O)Cc2ccc(Nc3ncc(F)c(Nc4ccc(C(=O)Nc5ccccc5Cl)cc4)n3)cc2)CC1    6.2
9. CS(=O)(=O)N1CCN(Cc2cc3nc(-c4cccc5[nH]ncc45)nc(N4CCOCC4)c3s2)CC1    100
10. O=c1cc(N2CCOCC2)oc2c(-c3cccc4c3sc3ccccc34)cccc12    100
11. COc1cc(C)c(Sc2cnc(NC(=O)c3ccc(CNC(C)C(C)C)cc3)s2)cc1C(=O)N1CCN(C(C)=O)CC1 (centres undefined)    100
12. CC(=O)c1c(C)c2cnc(Nc3ccc(N4CCNCC4)cn3)nc2n(C2CCCC2)c1=O    44
13. N#Cc1c(NC(=O)c2cccc3ccccc23)sc2c1CCCC2    100
14. C=CC(=O)Nc1cc(-n2c(=O)ccc3cnc4ccc(-c5cn[nH]c5)cc4c32)ccc1C    39
15. COc1cc(C(=O)NC2CCN(C)CC2)ccc1Nc1ncc2c(n1)N(C1CCCC1)C(C)CC(=O)N2C (centres undefined)    100
16. CCN1CCN(Cc2ccc(NC(=O)c3ccc(C)c(/C=C/c4cnc5[nH]ccc5c4OC)c3)cc2C(F)(F)F)CC1    1
17. Cc1cc([C@@H](C)Nc2ccccc2C(=O)O)c2nc(N3CCOCC3)cc(=O)n2c1    94
18. O=C(NC1CC1)c1cccc(-c2ccc3c(NC(=O)C4CC4)n[nH]c3c2)c1    55
19. Cc1ccc2nc(NCCN)c3ncc(C)n3c2c1    87

====

Measured kinase still bound, per cent of control accompanies every entry in the list below.
Test target: PRPF4B (human)
Test details: KINOMEscan competition binding
Test conditions: compound 10.0 µM
Measurement type: kinase still bound, per cent of control

1) OCCCNc1cc(-c2ccnc(Nc3cccc(Cl)c3)n2)ccn1    100%
2) CCC(=O)N1CCN(c2ccc(-n3c(=O)ccc4cnc5ccc(-c6cnc7ccccc7c6)cc5c43)cc2C(F)(F)F)CC1    100%
3) Cc1ccc(NC(=O)c2cccc(C(C)(C)C#N)c2)cc1Nc1ccc2ncn(C)c(=O)c2c1    100%
4) Nc1ccc(-c2ccc3ncc4ccc(=O)n(-c5cccc(C(F)(F)F)c5)c4c3c2)cn1    100%
5) Cc1cc([C@@H](C)Nc2ccccc2C(=O)O)c2nc(N3CCOCC3)cc(=O)n2c1    71%
6) Cc1ccc2nc(NCCN)c3ncc(C)n3c2c1    66%
7) CCOc1cc2ncc(C#N)c(Nc3ccc(OCc4ccccn4)c(Cl)c3)c2cc1NC(=O)/C=C/CN(C)C    92%
8) O=C1Nc2ccc(I)cc2/C1=C/c1cc(Br)c(O)c(Br)c1    50%
9) CCN1CCN(Cc2ccc(Nc3ncc4c(n3)N(C)c3ccccc3C(=O)N4C)cc2C(F)(F)F)CC1    76%
10) N#Cc1c(NC(=O)c2cccc3ccccc23)sc2c1CCCC2    100%

====

Test target: TNK1 (human)
Test details: KINOMEscan competition binding
Test conditions: compound 10.0 µM
Measurement type: kinase still bound, per cent of control (%)

1. Nc1ccc(-c2ccc3ncc4ccc(=O)n(-c5cccc(C(F)(F)F)c5)c4c3c2)cn1    100
2. N#Cc1c(NC(=O)c2cccc3ccccc23)sc2c1CCCC2    74
3. CCCS(=O)(=O)Nc1ccc(F)c(C(=O)c2c[nH]c3ncc(-c4ccc(Cl)cc4)cc23)c1F    100
4. O=C(NOC[C@H](O)CO)c1ccc(F)c(F)c1Nc1ccc(I)cc1F    68
5. CCC(=O)N1CCN(c2ccc(-n3c(=O)ccc4cnc5ccc(-c6cnc7ccccc7c6)cc5c43)cc2C(F)(F)F)CC1    6.8
6. O=C1Nc2ccc(I)cc2/C1=C/c1cc(Br)c(O)c(Br)c1    100
7. COc1cc(C(=O)NC2CCN(C)CC2)ccc1Nc1ncc2c(n1)N(C1CCCC1)CCC(=O)N2C(C)C    100
8. CCOc1cc2ncc(C#N)c(Nc3ccc(OCc4ccccn4)c(Cl)c3)c2cc1NC(=O)/C=C/CN(C)C    100
9. O=C(NC1CC1)c1cccc(-c2ccc3c(NC(=O)C4CC4)n[nH]c3c2)c1    100
10. CCN1CCN(Cc2ccc(Nc3ncc4c(n3)N(C)c3ccccc3C(=O)N4C)cc2C(F)(F)F)CC1    0.3
11. C=CC(=O)Nc1cccc(Nc2nc(N[C@H]3CC[C@H](N(C)C)CC3)nc3c2ncn3C(C)C)c1    100
12. CN(C)C/C=C/C(=O)Nc1cccc(Nc2ncc3c(n2)N(C)c2ccccc2C(=O)N3C)c1    0.4
13. Cc1ccc(C(=O)Nc2cccc(C(F)(F)F)c2)cc1Nc1cncc(C(N)=O)c1    100
14. C=CC(=O)Nc1cccc(Oc2nc(Nc3ccc(N4CCN(C)CC4)cc3OC)ncc2Cl)c1    1.8
15. Cn1c(=O)n(-c2ccc(C(C)(C)C#N)cc2)c2c3cc(-c4cnc5ccccc5c4)ccc3ncc21    100
16. Cc1cc([C@@H](C)Nc2ccccc2C(=O)O)c2nc(N3CCOCC3)cc(=O)n2c1    100
17. OCCCNc1cc(-c2ccnc(Nc3cccc(Cl)c3)n2)ccn1    100
18. C=CC(=O)Nc1cc(NC(=O)c2ccc(C)c(NC(=O)c3ccno3)c2)cc(C(F)(F)F)c1    85
19. CC[C@@H]1C(=O)N(C)c2cnc(Nc3ccc(C(=O)NC4CCN(C)CC4)cc3OC)nc2N1C1CCCC1    32
20. Cc1ccc(NC(=O)c2cccc(C(C)(C)C#N)c2)cc1Nc1ccc2ncn(C)c(=O)c2c1    100
21. C[C@@H](Oc1cc(-n2cnc3ccc(CN4CCN(C)CC4)cc32)sc1C(N)=O)c1ccccc1C(F)(F)F    87
22. COc1cc(C(=O)NC2CCN(C)CC2)ccc1Nc1ncc2c(n1)N(C1CCCC1)C(C)CC(=O)N2C (stereo not given)    100
23. O=C(O)c1ccc(Nc2ncc3c(n2)-c2ccc(Cl)cc2C(c2c(F)cccc2F)=NC3)cc1    16
24. COc1cc(N2CCN(C)CC2)ccc1Nc1nc(N)c(C(=O)c2c(Cl)cccc2Cl)s1    100
25. Cc1ccc2nc(NCCN)c3ncc(C)n3c2c1    100
